Species: Mus musculus
Test: Compound was evaluated for inhibition of neutrophil recruitment in a mouse skin immune complex model.
Type: functional
Set-up: concentration or dose not given beside the values
# binarize Inhibition: threshold 50% inclusive, high side 1 (yes), low side 0 (no)

[ask] Quick check: does Cc1nnc([S+]([O-])Cc2ccccn2)o1 (stereo not drawn) have Inhibition greater than or equal to 50%?
[reply] 0 (no)

[ask] Same question, [O-][S+](Cc1ccccc1)c1nnc(-c2cccs2)o1 (stereo not drawn) this time
[reply] 0 (no)

[ask] COc1c(C)cnc(C[S+]([O-])c2nnc(-c3ccccc3)o2)c1C (stereo not drawn) ?
[reply] 0 (no)

[ask] Now consider COc1c(C)cnc(C[S+]([O-])c2nnc(C)o2)c1C (stereo not drawn) and answer again.
[reply] 1 (yes)

[ask] Repeat for the following molecule: [O-][S+](Cc1ccccc1)c1nnc(-c2ccccn2)o1 (stereo not drawn)
[reply] 1 (yes)

[ask] Request: [O-][S+](Cc1ccccc1)c1nnc(-c2ccncc2)o1 (stereo not drawn)
[reply] 1 (yes)

[ask] Item: COc1c(C)cnc(C[S+]([O-])c2nnc(-c3ccccc3O)o2)c1C (stereo not drawn)
[reply] 0 (no)
